test system: A549; experiment: Antiproliferative activity against human A549 cells after 24 hrs by MTT assay; format: functional, cell-based; conditions: A549, 24 h
pIC50: −log10 of the molar value.
measuredEndpoint: pIC50

Check out these entries, answers already filled in.
[[record]]
smilesrepresentation = "C=CCc1ccc(OCCC)c(-c2ccc(OCCC)c(CC=C)c2)c1"
measurement = "< 3.94"

[[record]]
smilesrepresentation = "C=CCc1cc(C=O)c(OCC(=O)OCC)c(-c2ccc(OCC(=O)OCC)c(CC=C)c2)c1"
measurement = "< 4.07"

[[record]]
smilesrepresentation = "C=CCc1cc(-c2ccc(OC)cc2)ccc1O"
measurement = "< 4.00"

[[record]]
smilesrepresentation = "C=CCc1ccc(OCC)c(-c2ccc(OCC)c(CC=C)c2)c1"
measurement = "< 3.91"


Lab note: `C=CCc1cc(-c2cccc([N+](=O)[O-])c2)ccc1O` gave pIC50 of < 4.00

Lab note: `C=CCc1cc(-c2cccc([N+](=O)[O-])c2)ccc1OC` gave pIC50 of < 4.00

Lab note: `C=CCc1cc(-c2ccc(OC)cc2OC)ccc1O` gave pIC50 of < 4.00

Lab note: `C=CCc1ccc(OC)c(-c2cccc([N+](=O)[O-])c2)c1` gave pIC50 of < 4.00

Lab note: `C=CCc1cc(CO)c(O)c(-c2cc(CO)c(O)c(CC=C)c2)c1` gave pIC50 of < 3.91

Lab note: `C=CCc1cc(-c2ccc(OC)c(OC)c2)ccc1O` gave pIC50 of < 4.00

Lab note: `C=CCc1cc(-c2ccc(F)cc2)ccc1O` gave pIC50 of < 4.00

Lab note: `C=CCOc1ccc(-c2ccc(OC)cc2)cc1CC=C` gave pIC50 of < 4.00
